compounds and their reported MIC
Test system: Staphylococcus aureus
Test: in vitro antibacterial activity, minimal inhibiting concentration, Staphylococcus aureus
Assay type: cell-based
Settings: in vitro, filter paper discs on nutrient agar, 0.1 ml of solution containing 10, 100 and 1,000 micrograms, read-out: Minimal inhibiting concentration, Staphylococcus aureus
Counter-ions that a name gives are not always drawn.
Supply the numeric figure in µg/mL, leaving out any unit text.

• CC1=C(C(=O)O)N2C(=O)C(NC(=O)Cn3ccccc3=O)C2SC1 (centres unmarked) [Compound 2, sodium salt] = 1000

// recorded MIC for CC(C(=O)NC1C(=O)N2[C@@H]1SC(C)(C)[C@@H]2C(=O)O)n1ccccc1=O (some centres unmarked) : 1000

The value of MIC measured for the compound Cc1cccc(=O)n1CC(=O)NC1C(=O)N2C1SC(C)(C)C2C(=O)O (centres unmarked) turned out to be 10

Summary for this compound, CC1(C)S[C@@H]2C(NC(=O)Cn3cc([N+](=O)[O-])ccc3=O)C(=O)N2[C@H]1C(=O)O (some centres unmarked) : MIC is 10

Looking up CC1(C)S[C@@H]2C(NC(=O)Cn3cc(N)ccc3=O)C(=O)N2[C@H]1C(=O)O (some centres unmarked) , I see its MIC listed as 10

Memo: CC(=O)OCC1=C(C(=O)O)N2C(=O)C(NC(=O)Cn3ccccc3=O)C2SC1 (centres unmarked) , reported MIC: 10

For COc1cccn(CC(=O)NC2C(=O)N3[C@@H]2SC(C)(C)[C@@H]3C(=O)O)c1=O (some centres unmarked) the compound record lists MIC as 10

MIC in this record for CC1(C)S[C@@H]2C(NC(=O)Cn3cc(Cl)ccc3=O)C(=O)N2[C@H]1C(=O)O (some centres unmarked) : 10
